Test system: 485368-065-R3-J5-PDC spheroids with HUVEC/MSC, viability;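 note: spheroids exposed to agents for seven days before readout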
assayText: Anticancer human tumor 485368-065-R3-J5-PDC patient-derived pancreatic carcinoma cell line growth inhibition [RAS]
conditionDetails: second compound 0.00316 µM; first compound 3.16 µM; active compounds read low

{"columns": ["molecule", "quantityUnit", "viability, T/C"],
 "data": [
  ["CCC(CC)c1cc(NC2CCC(N)C2)n2nccc2n1 (stereo not given) + C=CC(=O)N1CCN(c2nc(OCC3CCCN3C)nc3c(F)c(-c4nc(N)cc(C)c4C(F)(F)F)c(Cl)cc23)C(C)C1", "%", 3.52],
  ["CC(Nc1ccc2c(c1)OCCn1cc(N3C(=O)OCC3C(F)F)nc1-2)C(N)=O (stereo not given) + C=CC(=O)N1CCN(c2nc(OCC3CCCN3C)nc3c(F)c(-c4nc(N)cc(C)c4C(F)(F)F)c(Cl)cc23)C(C)C1", "%", 75.6],
  ["NC1c2ccccc2OC12CCN(c1cnc3c(N4CCCc5ncccc54)n[nH]c3n1)CC2 (stereo not given) + C=CC(=O)N1CCN(c2nc(OCC3CCCN3C)nc3c(F)c(-c4nc(N)cc(C)c4C(F)(F)F)c(Cl)cc23)C(C)C1", "%", 67],
  ["C[C@@H](NC(=O)c1ncnc(N)c1Cl)c1ncc(C(=O)Nc2cc(C(F)(F)F)c(Cl)cn2)s1 + C=CC(=O)N1CCN(c2nc(OCC3CCCN3C)nc3c(F)c(-c4nc(N)cc(C)c4C(F)(F)F)c(Cl)cc23)C(C)C1", "%", 86.6],
  ["Cc1nc(N2CCC3(CC2)COC(C)C3N)c(CO)nc1Sc1ccnc(N)c1Cl (stereo not given) + C=CC(=O)N1CCN(c2nc(OCC3CCCN3C)nc3c(F)c(-c4nc(N)cc(C)c4C(F)(F)F)c(Cl)cc23)C(C)C1", "%", 57.7]
]}
